Provenance of the data: the supplement of paper PMC8671470

I'd appreciate it if you could supply cell viability values for the items below.
Tested on: SHI-1
assay-overview: cell viability (% survival relative to DMSO control, bortezomib = 0%); higher = less cytotoxic
measurement-parameters: 1 nM; 72 h
Give the value in % but do not write % after it.

Give me measured cell viability, please, for this molecule: "C[C@]12C=CC(=O)C=C1CC[C@@H]1[C@@H]2[C@@H](O)C[C@@]2(C)[C@H]1CC[C@]2(O)C(=O)CO"
97.7

Give me measured cell viability, please, for this molecule: "CCOC(=O)c1sc(NC(=O)c2ccco2)c(SC#N)c1C"
90.4

Give me measured cell viability, please, for this molecule: "N#Cc1ccc(N(Cc2ccc(Br)cc2)n2cnnc2)cc1"
117

Give me measured cell viability, please, for this molecule: "Cc1cc2c(C(C)C)c(O)c(O)c(C=O)c2c(O)c1-c1c(C)cc2c(C(C)C)c(O)c(O)c(C=O)c2c1O"
101

Give me measured cell viability, please, for this molecule: "CCCc1nc(C)c2c(=O)nc(-c3cc(S(=O)(=O)N4CCN(CC)CC4)ccc3OCC)[nH]n12"
102

Give me measured cell viability, please, for this molecule: "c1cc(-c2cnn3cc(-c4ccc(OCCN5CCCCC5)cc4)cnc23)ccn1"
104

Give me measured cell viability, please, for this molecule: "CCN(CC)C(=S)SSC(=S)N(CC)CC"
87.7

Give me measured cell viability, please, for this molecule: "C=CC(=O)c1ccc(O)cc1"
99.7

----------
I'd appreciate it if you could supply cell viability values for the items below.
Tested on: myeloid leukemia patient primary cells Pat.13
assay-overview: cell viability (% survival relative to DMSO control); higher = less cytotoxic
measurement-parameters: 1000 nM; 72 h
Give the value in % but do not write % after it.

Give me measured cell viability, please, for this compound: "Cc1c2c(=O)n(-c3ccccc3Cl)[nH]c2cc(=O)n1Cc1ccccn1"
88.9

Give me measured cell viability, please, for this compound: "O=c1cc(N2CCOCC2)oc2c(-c3ccccc3)cccc12"
91.4

Give me measured cell viability, please, for this compound: C=CCN(C)CCCCCCOc1ccc(C(=O)c2ccc(Br)cc2)c(F)c1.O=C(O)/C=C/C(=O)O [Ro 48-8071 fumarate]
85.6

----------
I'd appreciate it if you could supply cell viability values for the items below.
Test system: MOLM-13
assay-overview: cell viability (% survival relative to DMSO control, bortezomib = 0%); higher = less cytotoxic
measurement-parameters: 10000 nM; 72 h

Give cell viability; test system MOLM-13; compound CCCc1nc(C)c2c(=O)nc(-c3cc(S(=O)(=O)N4CCN(CC)CC4)ccc3OCC)[nH]n12 [Vardenafil]
94.5%

Give cell viability; test system MOLM-13; compound "CN(CCCOc1ccc(Cc2ccccc2)cc1)CCC(=O)O"
79.1%

Give cell viability; test system MOLM-13; compound O=C(/C=C/c1ccc(O)c(O)c1)OCCc1ccccc1 [Caffeic acid phenethyl ester]
50.8%

Give cell viability; test system MOLM-13; compound O=C(Nc1ccccc1)c1cc([N+](=O)[O-])ccc1Cl [GW9662]
80.8%

Give cell viability; test system MOLM-13; compound Cc1cccc(Nc2cc(Cl)nc(SCC(=O)O)n2)c1C [Pirinixic acid]
84.6%

Give cell viability; test system MOLM-13; compound COC(=O)c1cc2c(C(F)(F)F)cc(-c3ccccc3)cc2n1O [NHI-2]
105%

Give cell viability; test system MOLM-13; compound CN(Cc1cnc2nc(N)nc(N)c2n1)c1ccc(C(=O)N[C@@H](CCC(=O)O)C(=O)O)cc1 [Methotrexate]
0.962%

Give cell viability; test system MOLM-13; compound CC(=O)Nc1nc(C)c(-c2ccc(Cl)c(S(=O)(=O)NCCO)c2)s1 [PIK93]
0.72%

Give cell viability; test system MOLM-13; compound Cc1[nH]nc(C(F)(F)F)c1Cc1sc2c(c1C(=O)N1C[C@](C)(O)CO1)c(=O)n(C)c(=O)n2C(C)C [AZD3965]
93.5%

Give cell viability; test system MOLM-13; compound O=c1c(-c2ccc(O)cc2)coc2cc(O[C@@H]3O[C@H](CO)[C@@H](O)[C@H](O)[C@H]3O)ccc12 [Daidzin]
99.3%

Give cell viability; test system MOLM-13; compound Cc1ccc(-c2cc(C(F)(F)F)nn2-c2ccc(S(N)(=O)=O)cc2)cc1 [Celecoxib]
92.5%

Give cell viability; test system MOLM-13; compound CC(C)CC(=O)N[C@H](C(=O)N[C@H](C(=O)N[C@@H](CC(C)C)[C@@H](O)CC(=O)N[C@@H](C)C(=O)N[C@@H](CC(C)C)[C@@H](O)CC(=O)O)C(C)C)C(C)C [Pepstatin A]
86.5%

Give cell viability; test system MOLM-13; compound N#C/C(=C\c1ccc(O)cc1)C(=O)O [alpha-cyano-4-hydroxycinnamic acid]
85.2%

Give cell viability; test system MOLM-13; compound CCCCCN(C)CCC(O)(P(=O)(O)O)P(=O)(O)O [Ibandronate]
117%

Give cell viability; test system MOLM-13; compound "Cn1cc(-c2ccncc2)c(-c2ccc(OCc3ccc4ccccc4n3)cc2)n1"
6.76%

Give cell viability; test system MOLM-13; compound O=C(NCCN1CCC(n2c(O)nc3ccccc32)CC1)c1cc2cc(F)ccc2[nH]1 [FIPI]
69%

Give cell viability; test system MOLM-13; compound O=c1cc(-c2ccccc2)oc2c1ccc1ccccc12 [Alpha-Naphtoflavone]
90.1%

Give cell viability; test system MOLM-13; compound CCN(CC)C(=S)SSC(=S)N(CC)CC [Disulfiram]
92.7%

Give cell viability; test system MOLM-13; compound "O=c1cc(N2CCOCC2)oc2c(-c3ccccc3)cccc12"
0.26%

----------
System: HL-60
assay-overview: area under dose-response curve (viability, 1 nM-10 uM) (fraction (0-1)); higher = more sensitive
measurement-parameters: 72 h; co-treatment: GSK2194069 100 nM
attribute-measured: area under dose-response curve

Give me measured area under dose-response curve, please, for this compound: "Cc1cccc(Nc2cc(Cl)nc(SCC(=O)O)n2)c1C"
< 0.0301

Give me measured area under dose-response curve, please, for this compound: "Cc1nc(-c2ccccc2)sc1C(=O)Nc1ccc(S(N)(=O)=O)cc1"
< 0.0301

Give me measured area under dose-response curve, please, for this compound: "O=C(/C=C/c1ccc(O)c(O)c1)OCCc1ccccc1"
0.0593

Give me measured area under dose-response curve, please, for this compound: C[C@H]1c2cccc(O)c2C(=O)C2C(=O)[C@]3(O)C(=O)C(C(N)=O)C(=O)[C@@H](N(C)C)[C@@H]3[C@@H](O)[C@@H]21 (stereo partly specified)
< 0.0301

Give me measured area under dose-response curve, please, for this compound: "CCc1oc2ccccc2c1C(=O)c1cc(Br)c(O)c(Br)c1"
< 0.0301

Give me measured area under dose-response curve, please, for this compound: "O=C1C(SCCO)=C(SCCO)C(=O)c2ccccc21"
0.125

----------
System: HL-60
assay-overview: cell viability (% survival relative to DMSO control, bortezomib = 0%); higher = less cytotoxic
measurement-parameters: 10 nM; 72 h
attribute-measured: cell viability (%)
Give the value in % but do not write % after it.

Give cell viability; test system HL-60; compound CCCc1nc(C)c2c(=O)nc(-c3cc(S(=O)(=O)N4CCN(CC)CC4)ccc3OCC)[nH]n12 [Vardenafil]
115

Give cell viability; test system HL-60; compound O=C(/C=C/c1ccc(O)c(O)c1)OCCc1ccccc1 [Caffeic acid phenethyl ester]
111

Give cell viability; test system HL-60; compound CN1CCN(CCCN2c3ccccc3Sc3ccc(C(F)(F)F)cc32)CC1 [Trifluoperazine]
101

Give cell viability; test system HL-60; compound OC[C@H]1NC[C@H](O)[C@@H](O)[C@@H]1O [Duvoglustat]
180

Give cell viability; test system HL-60; compound N#Cc1ccc(N(Cc2ccc(Br)cc2)n2cnnc2)cc1 [YM511]
76.2

----------
Tested on: BV-173
assay-overview: cell viability (% survival relative to DMSO control, bortezomib = 0%); higher = less cytotoxic
measurement-parameters: 10000 nM; 72 h
attribute-measured: cell viability (%)
Give the value in % but do not write % after it.

Give me measured cell viability, please, for this compound: "CCc1c(C(=O)C(N)=O)c2c(OCC(=O)O)cccc2n1Cc1ccccc1"
88.7

Give me measured cell viability, please, for this compound: "O=c1cc(-c2ccccc2)oc2c1ccc1ccccc12"
108

Give me measured cell viability, please, for this compound: "Cc1cc(C(=O)NNCc2ccccc2)no1"
80.7

Give me measured cell viability, please, for this compound: "CCCCCOC(=O)Nc1nc(=O)n([C@@H]2O[C@H](C)[C@@H](O)[C@H]2O)cc1F"
88.3

Give me measured cell viability, please, for this compound: "N#Cc1ccc(N(Cc2ccc(Br)cc2)n2cnnc2)cc1"
100

Give me measured cell viability, please, for this compound: "O=C(Nc1ccccc1)c1cc([N+](=O)[O-])ccc1Cl"
56.6

Give me measured cell viability, please, for this compound: "CN(CCCOc1ccc(Cc2ccccc2)cc1)CCC(=O)O"
95.8

Give me measured cell viability, please, for this compound: "C=CC(=O)c1ccc(O)cc1"
-1.1

Give me measured cell viability, please, for this compound: "N[C@@H](CC(=O)N1CCn2c(nnc2C(F)(F)F)C1)Cc1cc(F)c(F)cc1F"
102
